Every entry's value here was drawn from PubChem BioAssay AID1918953.

Attribute: viability, T/C
# Tested on: MDA-MB-231 complex spheroid viability
# testMethodNotes: Anticancer human tumor MDA-MB-231/ATCC cell line growth inhibition;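 also: drug exposure lasted 7 days starting on day 3 of spheroid growth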
# experimentalSetup: second compound 1 µM; first compound 10 µM; active compounds read low
outcomeMeasure: viability, T/C (%)

compound="CC1(C)CCC(CN2CCN(c3ccc(C(=O)NS(=O)(=O)c4ccc(NCC5CCOCC5)c([N+](=O)[O-])c4)c(Oc4cnc5[nH]ccc5c4)c3)CC2)=C(c2ccc(Cl)cc2)C1 + NC1CC1c1ccc(-c2cccc(O)c2)cc1" measurementtarget="MDA-MB-231 complex spheroid viability" outcomemeasure="viability, T/C" resultvalue=1.72
compound="CC(C)c1c(-c2ccccc2)nc2c(C#N)c[nH]n2c1=O + NC1CCC(NC2CC2c2ccccc2)CC1" measurementtarget="MDA-MB-231 complex spheroid viability" outcomemeasure="viability, T/C" resultvalue=103
compound="CC1COCCN1c1cc(C2(S(C)(=N)=O)CC2)nc(-c2ccnc3[nH]ccc23)n1 (stereo unspecified) + NC1CC1c1ccc(-c2cccc(O)c2)cc1" measurementtarget="MDA-MB-231 complex spheroid viability" outcomemeasure="viability, T/C" resultvalue=20.9
compound="COc1ccc([C@@H](O)c2cc(-c3ncnc4cc(N5CCOCC5)ccc34)c(F)cc2Cl)nn1 + NC1CC1c1ccc(-c2cccc(O)c2)cc1" measurementtarget="MDA-MB-231 complex spheroid viability" outcomemeasure="viability, T/C" resultvalue=11
compound="CC(C)c1c(-c2ccccc2)nc2c(C#N)c[nH]n2c1=O + NC1CC1c1ccc(-c2cccc(O)c2)cc1" measurementtarget="MDA-MB-231 complex spheroid viability" outcomemeasure="viability, T/C" resultvalue=52.9
compound="O=C(c1cc(Cc2n[nH]c(=O)c3ccccc23)ccc1F)N1CCN(C(=O)C2CC2)CC1 + NC1CCC(NC2CC2c2ccccc2)CC1" measurementtarget="MDA-MB-231 complex spheroid viability" outcomemeasure="viability, T/C" resultvalue=57.6
